Hello, the source for this data is patent US12486244B2, in case you need it.

Items are presented alongside their recorded IC50.
- Test system: Recombinant human AOC1/DAO protein (Homo sapiens)
- Sequence (P19801 20-751): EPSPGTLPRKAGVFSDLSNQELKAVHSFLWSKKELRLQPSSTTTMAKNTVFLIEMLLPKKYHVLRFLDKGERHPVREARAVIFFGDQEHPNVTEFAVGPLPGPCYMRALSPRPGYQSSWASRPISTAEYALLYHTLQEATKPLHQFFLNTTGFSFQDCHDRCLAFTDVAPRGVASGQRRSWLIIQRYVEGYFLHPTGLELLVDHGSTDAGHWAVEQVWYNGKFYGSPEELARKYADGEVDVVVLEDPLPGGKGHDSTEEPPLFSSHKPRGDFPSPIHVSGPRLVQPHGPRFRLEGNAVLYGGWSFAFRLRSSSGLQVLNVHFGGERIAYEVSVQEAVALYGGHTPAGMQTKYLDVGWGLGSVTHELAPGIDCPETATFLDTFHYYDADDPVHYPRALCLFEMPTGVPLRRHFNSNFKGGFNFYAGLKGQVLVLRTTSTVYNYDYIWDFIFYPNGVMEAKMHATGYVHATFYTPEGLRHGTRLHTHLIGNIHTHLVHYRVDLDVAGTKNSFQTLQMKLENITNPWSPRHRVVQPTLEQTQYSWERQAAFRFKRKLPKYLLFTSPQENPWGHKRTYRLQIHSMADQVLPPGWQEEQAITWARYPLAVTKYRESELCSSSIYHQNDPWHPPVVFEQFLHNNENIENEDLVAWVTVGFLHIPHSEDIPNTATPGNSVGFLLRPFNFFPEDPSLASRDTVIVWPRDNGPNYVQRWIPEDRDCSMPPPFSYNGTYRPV
- Assay summary: Inhibitory activity on AOC1 (Amplex UltraRed/HRP, putrescine substrate)
- Experimental parameters: compound 100 μM to 5 nM

Compound structure	IC50
CC1(O)CCN(c2ncc(OC/C(=C/F)CN)cn2)CC1	> 10 µM

Could you now look at the following compound, please?
input: IC50 for COCC1(O)CCN(c2ncc(OC/C(=C/F)CN)cn2)CC1 ?
output: 0.1 to 10 µM

---

- Test system: Recombinant human MAO-A (Homo sapiens)
- Sequence (P21397 1-527): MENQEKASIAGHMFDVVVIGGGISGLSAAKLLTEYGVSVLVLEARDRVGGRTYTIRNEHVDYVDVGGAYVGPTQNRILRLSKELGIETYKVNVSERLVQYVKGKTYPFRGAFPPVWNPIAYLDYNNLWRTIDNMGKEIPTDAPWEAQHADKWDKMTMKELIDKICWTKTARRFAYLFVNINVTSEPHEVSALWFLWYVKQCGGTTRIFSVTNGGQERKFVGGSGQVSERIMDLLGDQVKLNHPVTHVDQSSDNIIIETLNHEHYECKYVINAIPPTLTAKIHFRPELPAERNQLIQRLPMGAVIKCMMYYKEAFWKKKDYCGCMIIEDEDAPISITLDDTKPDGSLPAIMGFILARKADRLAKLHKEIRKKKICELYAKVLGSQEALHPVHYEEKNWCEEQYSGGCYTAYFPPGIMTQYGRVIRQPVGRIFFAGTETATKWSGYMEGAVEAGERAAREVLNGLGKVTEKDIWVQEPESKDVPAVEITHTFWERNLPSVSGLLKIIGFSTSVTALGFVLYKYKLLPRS
- Assay summary: Inhibitory activity on MAO-A (MAO-Glo assay)
- Experimental parameters: recombinant human MAO-A 70 nM; compound 100 μM to 5 nM
pIC50: −log10 of the molar value.
Experimental readout: pIC50

Compound structure	pIC50
CC1(O)CCN(c2ncc(OC/C(=C/F)CN)cn2)CC1	4.00 to 5.00

input: Entry COCC1(O)CCN(c2ncc(OC/C(=C/F)CN)cn2)CC1 has what pIC50?
output: < 4.00
